- targetDesc: eel acetylcholinesterase (AChE) (Electrophorus electricus)
- Sequence (O42275 24-633): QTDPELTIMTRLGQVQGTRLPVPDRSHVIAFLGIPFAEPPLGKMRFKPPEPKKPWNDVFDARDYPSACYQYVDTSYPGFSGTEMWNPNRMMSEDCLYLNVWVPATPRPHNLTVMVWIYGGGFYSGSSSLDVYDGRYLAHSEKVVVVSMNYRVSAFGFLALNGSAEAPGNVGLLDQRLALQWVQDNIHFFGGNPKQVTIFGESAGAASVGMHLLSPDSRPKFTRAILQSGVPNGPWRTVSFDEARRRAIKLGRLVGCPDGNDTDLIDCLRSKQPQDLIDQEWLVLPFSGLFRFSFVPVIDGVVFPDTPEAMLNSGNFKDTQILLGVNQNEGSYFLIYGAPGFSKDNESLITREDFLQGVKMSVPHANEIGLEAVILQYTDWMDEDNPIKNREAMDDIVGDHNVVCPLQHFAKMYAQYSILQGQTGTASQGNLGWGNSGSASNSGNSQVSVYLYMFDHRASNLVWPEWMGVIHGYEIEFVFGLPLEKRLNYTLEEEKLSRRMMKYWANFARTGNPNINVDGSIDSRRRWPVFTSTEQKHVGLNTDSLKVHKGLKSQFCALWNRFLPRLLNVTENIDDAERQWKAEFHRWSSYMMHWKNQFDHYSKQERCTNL
- assaySummary: Eel AChE fluorescence assay (AMPLEX Red kit)
- Format: biochemical
- recordedConditions: read-out: inhibition of enzyme activity compared to DMSO control (screen)
Structures can show the parent of a compound that is named as a salt.
What inhibition at 20 µM was measured for each of the following?

INSERT INTO assay_data (compound, measvalue) VALUES
  ('CO[C@H]1/C=C/O[C@@]2(C)Oc3c(C)c(O)c4c(O)c(c5c(nc6cc(C)ccn65)c4c3C2=O)NC(=O)/C(C)=C\C=C\[C@H](C)[C@H](O)[C@@H](C)[C@@H](O)[C@@H](C)[C@H](OC(C)=O)[C@@H]1C', '≥ 50%'),
  ('CCN(CC)CCC[C@H](C)Nc1c2ccc(Cl)cc2nc2ccc(OC)cc12 [quinacrine hydrochloride]', '> 50%'),
  ('Cc1cc(N)c2ccccc2[n+]1CCCCCCCCCC[n+]1c(C)cc(N)c2ccccc21 [dequalinium chloride]', '≥ 50%'),
  ('CCN(CC)CCOc1ccc2c(c1)C(=O)c1cc(OCCN(CC)CC)ccc1-2', '≥ 50%');

# inhibition at 20 µM of COc1ccc2nc3cc(Cl)ccc3c(Nc3cc(CN4CCCC4)c(O)c(CN4CCCC4)c3)c2n1 = > 50%
